- Test system: ROCKII (1-543) (Homo sapiens)
- Method description: IMAP Assay (fluorescence polarization, FAM S6 peptide)
- Type: biochemical
- Set-up: 3 nM ROCKII (1-543) diluted in kinase reaction buffer
- Measurement parameters: IMAP FP, 1 nM ROCKII (1-543), 100 μM ATP; read-out: Assay 2 IC50
- Sequence (O75116 1-543, species assumed): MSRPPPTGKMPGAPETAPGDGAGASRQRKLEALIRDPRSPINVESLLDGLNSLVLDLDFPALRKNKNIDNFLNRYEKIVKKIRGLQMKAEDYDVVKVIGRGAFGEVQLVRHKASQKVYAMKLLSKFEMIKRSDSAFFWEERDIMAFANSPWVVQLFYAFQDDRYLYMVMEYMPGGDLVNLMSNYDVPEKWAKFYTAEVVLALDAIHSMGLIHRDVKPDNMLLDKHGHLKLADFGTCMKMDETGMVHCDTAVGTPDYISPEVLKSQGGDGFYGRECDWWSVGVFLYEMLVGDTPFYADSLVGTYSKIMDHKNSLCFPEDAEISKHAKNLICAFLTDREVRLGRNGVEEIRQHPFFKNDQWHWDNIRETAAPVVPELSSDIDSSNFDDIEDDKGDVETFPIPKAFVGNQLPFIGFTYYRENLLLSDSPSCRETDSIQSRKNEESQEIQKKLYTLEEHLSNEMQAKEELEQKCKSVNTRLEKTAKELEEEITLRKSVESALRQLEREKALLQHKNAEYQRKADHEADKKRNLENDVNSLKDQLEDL
T if IC50 is below 0.7 nM. F if not; exact matches included in F.

Worked set:
[
  {
    "Compound": "CN(CCC#N)[C@H]1CCc2nc(NC(=O)c3cccc(Cn4cc(-c5ccc(C#N)cc5)nn4)c3)sc2C1 [Compound 32]",
    "Category": "F"
  },
  {
    "Compound": "N#CCCN[C@H]1CCc2nc(NC(=O)c3cccc(Cn4cc(-c5ccc(C#N)cc5)nn4)c3)sc2C1 [Compound 13]",
    "Category": "F"
  },
  {
    "Compound": "CN1CCc2nc(NC(=O)c3cccc(CN4CCN(c5ccc(C#N)cc5)C4=O)c3)sc2C1 [Compound 1]",
    "Category": "F"
  },
  {
    "Compound": "CN(C)[C@H]1CCc2nc(NC(=O)c3cccc(CN4CCN(c5ccc(C#N)cc5)C4=O)c3)sc2C1 [Compound 3]",
    "Category": "T"
  },
  {
    "Compound": "COCCN(C)C1CCc2nc(NC(=O)c3cccc(Cn4cc(-c5ccc(C#N)cc5)cn4)c3)sc2C1 (stereo not shown) [Compound 14]",
    "Category": "T"
  }
]

Please state whether IC50 is below 0.7 nM for CN(C)[C@H]1CCc2nc(NC(=O)c3cccc(Cn4cc(-c5ccc(C#N)cc5)cn4)c3)sc2C1 [Compound 5]
T

Given N#CCCN[C@H]1CCc2nc(NC(=O)c3cccc(Cn4cc(-c5ccc(C#N)cc5)cn4)c3)sc2C1 [Compound 33] , is recorded IC50 strictly lower than 0.7 nM?
T

----------
- Test system: ROCKII (1-543) (Homo sapiens)
- Method description: Luciferin-Luciferase Assay (PKLight ATP detection)
- Format: biochemical
- Parameters: ROCKII (1-543) (62,408 Da) was diluted in assay buffer
- Measurement parameters: 7.5 nM ROCKII (1-543), 750 nM ATP
- Sequence (O75116 1-543): as the sequence (O75116 1-543, species assumed) above
One threshold, 2 nM, splits the recorded IC50 values: lower ones are y, equal or higher ones are n.

Answered examples (5):
[
  {
    "Molecule": "N#Cc1ccc(-c2cnn(Cc3cccc(C(=O)Nc4nc5c(s4)CC(NCC(F)F)CC5)c3)c2)cc1 (centres unmarked) [Compound 51]",
    "Category": "y"
  },
  {
    "Molecule": "CN(CCC#N)[C@H]1CCc2nc(NC(=O)c3cccc(Cn4cc(-c5ccc(C#N)cc5)cn4)c3)sc2C1 [Compound 53]",
    "Category": "y"
  },
  {
    "Molecule": "COCCN(C)[C@H]1CCc2nc(NC(=O)c3cccc(Cn4cc(-c5ccc(C#N)cc5)nn4)c3)sc2C1 [Compound 49]",
    "Category": "y"
  },
  {
    "Molecule": "CN(CCC(F)(F)F)[C@H]1CCc2nc(NC(=O)c3cccc(Cn4cc(-c5ccc(C#N)cc5)cn4)c3)sc2C1 [Compound 30]",
    "Category": "n"
  },
  {
    "Molecule": "N#Cc1ccc(-c2nnc(Cc3cccc(C(=O)Nc4nc5c(s4)C[C@@H](N4CCOCC4)CC5)c3)o2)cc1 [Compound 40]",
    "Category": "n"
  }
]

Below: the item to evaluate.
Hello, is IC50 of the following molecule strictly smaller than 2 nM? COCCN(CCOC)[C@H]1CCc2nc(NC(=O)c3cccc(Cn4cc(-c5ccc(C#N)cc5)nn4)c3)sc2C1 [Compound 55]
n

Reference for the values: patent US9000154B2
